- testSystem: VEGFR2 (KDR) (Homo sapiens, UniProt P35968)
- Sequence (P35968 806-1356): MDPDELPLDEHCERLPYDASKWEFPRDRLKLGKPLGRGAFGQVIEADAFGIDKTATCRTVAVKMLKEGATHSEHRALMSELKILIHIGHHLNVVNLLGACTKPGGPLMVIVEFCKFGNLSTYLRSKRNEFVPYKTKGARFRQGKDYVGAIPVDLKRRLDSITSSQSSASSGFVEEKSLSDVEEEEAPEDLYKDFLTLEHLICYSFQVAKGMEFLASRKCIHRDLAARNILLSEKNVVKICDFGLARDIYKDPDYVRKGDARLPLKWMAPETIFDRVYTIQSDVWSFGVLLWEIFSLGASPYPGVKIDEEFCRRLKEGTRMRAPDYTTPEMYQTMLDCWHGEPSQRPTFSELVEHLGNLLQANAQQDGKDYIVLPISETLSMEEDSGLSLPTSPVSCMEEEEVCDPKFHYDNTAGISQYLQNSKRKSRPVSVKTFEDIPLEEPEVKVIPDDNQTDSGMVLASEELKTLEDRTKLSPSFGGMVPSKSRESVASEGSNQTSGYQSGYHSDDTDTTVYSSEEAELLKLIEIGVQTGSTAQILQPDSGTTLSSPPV
- measurementDescription: In vitro receptor tyrosine kinase assay (VEGF receptor KDR), DELFIA
- measurementConditions: recombinant GST-VEGFR2 catalytic domain, ATP 0.6 uM, enzyme 5 nM
pIC50: −log10 of the molar value.
propertyName: pIC50

compound	pIC50
COCCNCc1ccc(-c2cc3nccc(Oc4ccc(NC(=O)Nc5cccc(C(=O)OC)c5)cc4F)c3s2)nc1	> 6.60
COCCN(Cc1ccc(-c2cc3nccc(Oc4ccc(NC(=O)Nc5cccc(C(N)=O)c5)cc4F)c3s2)nc1)C(=O)OC [drawing 160]	> 6.60
COCCNCc1ccc(-c2cc3nccc(Oc4ccc(NC(=O)C5CC5)cc4F)c3s2)nc1	6.30 to 6.60
COCCNCc1cnc(-c2cc3nccc(Oc4ccc(NC(=O)Nc5cccc(C(N)=O)c5)cc4F)c3s2)n1C	> 6.60

# batch: return pIC50 for each of the 4 compounds below
1. COCCNCc1ccc(-c2cc3nccc(Oc4ccc(NC(=O)CC(=O)Nc5cccc(C(N)=O)c5)cc4F)c3s2)nc1
2. CNC(=O)c1cccc(NC(=O)Nc2ccc(Oc3ccnc4cc(-c5ccc(CNCCOC)cn5)sc34)c(F)c2)c1
3. COCCNCc1ccc(-c2cc3nccc(Oc4ccc(NC(=O)Nc5cccc(C(=O)N(C)C)c5)cc4F)c3s2)nc1
4. COCCNCc1ccc(-c2cc3nccc(Oc4ccc(NC(=O)Nc5ccn(C)n5)cc4F)c3s2)nc1

stdout:
6.30 to 6.60
> 6.60
> 6.60
> 6.60

----------
- System: VEGF-dependent Erk phosphorylation in HUVEC cells
- measurementDescription: VEGF-dependent Erk phosphorylation
- Type: cell-based
- measurementConditions: Homo sapiens, 1.5 h compound, VEGF165 150 ng/ml, phospho ERK1/2 Western blot
pIC50: −log10 of the molar value.
Would you mind telling me the reported pIC50 of each entry?

Here is how some molecules turned out for pIC50.
molecule	testSystem	pIC50
CCOC(=O)N(CCOC)Cc1ccc(-c2cc3nccc(Oc4ccc(NC(=O)NC5CC5)cc4F)c3s2)nc1	VEGF-dependent Erk phosphorylation in HUVEC cells	> 6.60
COCCNCc1cnc(-c2cc3nccc(Oc4ccc(NC(=O)Nc5ccc(OC)cc5)cc4F)c3s2)n1C	VEGF-dependent Erk phosphorylation in HUVEC cells	> 6.60
COCCNCc1ccc(-c2cc3nccc(Oc4ccc(NC(=O)OC5CCC5)cc4F)c3s2)nc1	VEGF-dependent Erk phosphorylation in HUVEC cells	> 6.60

The value of pIC50 measured for the molecule COCCNCc1cnc(-c2cc3nccc(Oc4ccc(NC(=O)NC5CC5)cc4F)c3s2)n1C [drawing 131] turned out to be > 6.60

----------
- testSystem: VEGFR2 (KDR) (Homo sapiens, UniProt P35968)
- measurementDescription: In vitro receptor tyrosine kinase assay (VEGF receptor KDR), DELFIA
- measurementConditions: recombinant GST-VEGFR2 catalytic domain, ATP 0.6 uM, enzyme 5 nM
pIC50: −log10 of the molar value.
propertyName: pIC50

Here is how some compounds turned out for pIC50.
compound	pIC50
COCCNCc1ccc(-c2cc3nccc(Oc4ccc(NC(=O)Nc5cccc(C(N)=O)c5)cc4F)c3s2)nc1	> 6.60
COCCNCc1ccc(-c2cc3nccc(Oc4ccc(NC(=O)NC5CCC5)cc4F)c3s2)nc1 [drawing 153]	> 6.60
COC[C@H](C)NCc1ccc(-c2cc3nccc(Oc4ccc(NC(=O)NC5CC5)cc4F)c3s2)nc1	> 6.60
COCCNCc1ccc(-c2cc3nccc(Oc4ccc(NC(=O)CC(=O)NC5CCC5)cc4F)c3s2)nc1	6.30 to 6.60

# batch: return pIC50 for each of the 3 compounds below
1. COCCN(Cc1ccc(-c2cc3nccc(Oc4ccc(NC(=O)NC5CC5)cc4F)c3s2)nc1)C(=O)[C@H](N)C(C)C [drawing 143]
2. COCCNCc1ccc(-c2cc3nccc(Oc4ccc(NC(=O)NC(C)C)cc4F)c3s2)nc1
3. COCCNCc1cnc(-c2cc3nccc(Oc4ccc(NC(=O)Nc5ccc(OC)cc5)cc4F)c3s2)n1C

stdout:
1. > 6.60
2. 6.00 to 6.30
3. > 6.60

The value of pIC50 measured for the compound COCCN(Cc1ccc(-c2cc3nccc(Oc4ccc(NC(=O)NC5CC5)cc4F)c3s2)nc1)C(=O)OC turned out to be > 6.60

----------
- testSystem: VEGFR2 (KDR) (Homo sapiens, UniProt P35968)
- measurementDescription: In vitro receptor tyrosine kinase assay (VEGF receptor KDR), DELFIA
- measurementConditions: recombinant GST-VEGFR2 catalytic domain, ATP 0.6 uM, enzyme 5 nM
Would you mind telling me the reported IC50 of each entry?

Here is how some compounds turned out for IC50.
compound	IC50
COCCOCCOCCOCCN(Cc1ccc(-c2cc3nccc(Oc4ccc(NC(=O)NC5CC5)cc4F)c3s2)nc1)C(C)=O	< 250 nM
COCCNCc1cnc(-c2cc3nccc(Oc4ccc(NC(=O)Nc5cc(C(F)(F)F)ccc5F)cc4F)c3s2)n1C	< 250 nM
COCCNCc1ccc(-c2cc3nccc(Oc4ccc(NC(=O)N[C@H]5CCOC5)cc4F)c3s2)nc1	500 to 1000 nM

Here is the next item to consider.
The value of IC50 measured for the compound COCCNCc1cnc(-c2cc3nccc(Oc4ccc(NC(=O)Nc5ccc(F)cc5F)cc4F)c3s2)n1C [drawing 134] turned out to be < 250 nM

----------
- Test system: CNV progression
- measurementDescription: In vivo choroidal neovascularization (CNV) model
- Design: species or system Brown-Norway rats
- measurementConditions: 240 h; rat laser-induced CNV, 30 nmol/eye injection on Day 3, CNV area on Day 10 vs vehicle-treated group
propertyName: inhibition in vivo at 30 nmol/eye

molecule	observedResult
COCCOCCNCc1ccc(-c2cc3nccc(Oc4ccc(NC(=O)NC5CC5)cc4F)c3s2)nc1 [Compound 331]	40 to 60%
COC[C@H](C)N(Cc1ccc(-c2cc3nccc(Oc4ccc(NC(=O)NC5CC5)cc4F)c3s2)nc1)C(C)=O [Compound 335]	40 to 60%

Here is the next item to consider.
The value of inhibition in vivo at 30 nmol/eye measured for the molecule COCCNCc1cccc(-c2cc3nccc(Oc4ccc(NC(=O)Nc5cccc(P(C)(C)=O)c5)cc4F)c3s2)n1 [Compound 387] turned out to be 40 to 60%
